Assay: in vivo
Settings: CD-1, mouse, iv, 1 mg/kg
Measured property: half-life at 24 h (h)
Numbers only; they are read as h.

Exercise: Indicate its recorded half-life at 24 h; the molecule in question is `CC(=O)c1[nH]c2ccc(F)cc2c1-c1cn(CC2CCN(CCNS(=O)(=O)c3ccc(-c4c(O)cccc4F)cc3)CC2)nn1`
Key: 1.13

###

Experiment: in vivo
Details: CD-1, mouse, ip, 40 mg/kg
Measured property: AUC(0-inf) at 24 h
Reply with a number, then the unit it belongs to.

Exercise: Indicate its recorded AUC(0-inf) at 24 h; the compound in question is `CC(=O)c1[nH]c2ccc(F)cc2c1-c1cn(CC2CCN(CCNS(=O)(=O)c3ccc(-c4c(O)cccc4F)cc3)CC2)nn1`
Key: 8640 ng·h/mL

###

Assay: physchem
Measured property: solubility

Exercise: Indicate its recorded solubility; the compound in question is `CC(C)COC(=O)c1[nH]c2ccc(F)cc2c1-c1cn(CC2CCN(CCNS(=O)(=O)c3ccc(CC(C)C)cc3)CC2)nn1`
Key: < 0.5 µg/mL

###

Experiment: in vitro
Conditions: mouse, hepatocytes
Binarize remaining at 0.5 h at 40%; below is t, at or above is f.

Exercise: Strictly below 40% in remaining at 0.5 h? `CC(=O)c1[nH]c2ccc(F)cc2c1-c1cn(CC2CCN(CCNS(=O)(=O)c3ccc(-c4ccccc4O)cc3)CC2)nn1`
Key: f

Exercise: Strictly below 40% in remaining at 0.5 h? `CC(=O)c1[nH]c2ccc(F)cc2c1-c1cn(CC2CCN(CCNS(=O)(=O)c3ccc(CC(C)C)cc3)CC2)nn1`
Key: f

Exercise: Strictly below 40% in remaining at 0.5 h? `CC(=O)c1[nH]c2ccc(F)cc2c1-c1cn(CC2CCN(CCNS(=O)(=O)c3ccc(-c4c(O)cccc4F)c(C(F)(F)F)c3)CC2)nn1`
Key: t

Exercise: Strictly below 40% in remaining at 0.5 h? `CC(C)Cc1ccc(S(=O)(=O)NCCN2CCC(Cn3cc(-c4c(C(=O)C(C)C)[nH]c5ccc(F)cc45)nn3)CC2)cc1`
Key: t

Exercise: Strictly below 40% in remaining at 0.5 h? `CCOC(=O)c1[nH]c2ccc(F)cc2c1-c1cn(CC2CCN(CCNS(=O)(=O)c3ccc(CC(C)C)cc3)CC2)nn1`
Key: t

Exercise: Strictly below 40% in remaining at 0.5 h? `CC(C)Cc1ccc(S(=O)(=O)NCCN2CCC(Cn3cc(-c4c[nH]c5ccc(F)cc45)nn3)CC2)cc1`
Key: t

Exercise: Strictly below 40% in remaining at 0.5 h? `CC(=O)c1[nH]c2ccc(F)cc2c1-c1cn(CC2CCN(CCNS(=O)(=O)c3ccc(-c4c(O)cccc4F)cc3)CC2)nn1`
Key: f

Exercise: Strictly below 40% in remaining at 0.5 h? `COc1cccc(OC)c1-c1ccc(S(=O)(=O)NCCN2CCC(Cn3cc(-c4c(C(C)=O)[nH]c5ccc(F)cc45)nn3)CC2)cc1`
Key: f

###

I'd appreciate it if you could supply solubility at 24 h values for the items below.
Test: physchem
Conditions: PBS buffer, pH 7.4
Numbers only; they are read as µg/mL.

Exercise: Indicate its recorded solubility at 24 h; the molecule in question is `COc1cccc(F)c1-c1ccc(S(=O)(=O)NCCN2CCC(Cn3cc(-c4c(C(C)=O)[nH]c5ccc(F)cc45)nn3)CC2)cc1`
Key: 5.4

Exercise: Indicate its recorded solubility at 24 h; the molecule in question is `CC(=O)c1[nH]c2ccc(F)cc2c1-c1cn(CC2CCN(CCNS(=O)(=O)c3ccc(-c4c(O)cccc4F)cc3)CC2)nn1`
Key: 10.7

Exercise: Indicate its recorded solubility at 24 h; the molecule in question is `CC(=O)c1[nH]c2ccc(F)cc2c1-c1cn(CC2CCN(CCNS(=O)(=O)c3ccc(-c4ccccc4O)cc3)CC2)nn1`
Key: 18.5

###

Assay: physchem
Conditions: PBS buffer, pH 7.4
Measured property: log10 solubility at 24 h (log10 of the value in µg/mL)
Note: values are log10 of solubility at 24 h expressed in µg/mL.

Exercise: Indicate its recorded log10 solubility at 24 h; the compound in question is `CC(=O)c1[nH]c2ccc(F)cc2c1-c1cn(CC2CCN(CCNS(=O)(=O)c3ccc(-c4c(O)cccc4F)c(C(F)(F)F)c3)CC2)nn1`
Key: 0.04

Exercise: Indicate its recorded log10 solubility at 24 h; the compound in question is `COc1cccc(OC)c1-c1ccc(S(=O)(=O)NCCN2CCC(Cn3cc(-c4c(C(C)=O)[nH]c5ccc(F)cc45)nn3)CC2)cc1`
Key: 0.90

Exercise: Indicate its recorded log10 solubility at 24 h; the compound in question is `CC(=O)c1[nH]c2ccc(F)cc2c1-c1cn(CC2CCN(CCNS(=O)(=O)c3ccc(-c4c(O)cccc4F)c(C#N)c3)CC2)nn1`
Key: 1.41

Exercise: Indicate its recorded log10 solubility at 24 h; the compound in question is `CC(C)Cc1ccc(S(=O)(=O)NCCN2CCC(Cn3cc(-c4c[nH]c5ccccc45)nn3)CC2)cc1`
Key: 0.43

Exercise: Indicate its recorded log10 solubility at 24 h; the compound in question is `COc1cccc(OC)c1-c1ccc(S(=O)(=O)NCCN2CCC(Cn3cc(-c4c(C(C)=O)[nH]c5ccc(F)cc45)nn3)CC2)cc1C`
Key: 0.28

Exercise: Indicate its recorded log10 solubility at 24 h; the compound in question is `CC(C)Cc1ccc(S(=O)(=O)NCCN2CCC(Cn3cc(-c4c[nH]c5ccc(F)cc45)nn3)CC2)cc1`
Key: 0.18

Exercise: Indicate its recorded log10 solubility at 24 h; the compound in question is `CC(C)Cc1ccc(S(=O)(=O)NCCN2CCC(Cn3cc(-c4c(C(=O)C(C)C)[nH]c5ccc(F)cc45)nn3)CC2)cc1`
Key: -0.05

Exercise: Indicate its recorded log10 solubility at 24 h; the compound in question is `CC(=O)c1[nH]c2ccc(F)cc2c1-c1cn(CC2CCN(CCNS(=O)(=O)c3ccc(CC(C)C)cc3)CC2)nn1`
Key: 1.02

Exercise: Indicate its recorded log10 solubility at 24 h; the compound in question is `COc1cc(S(=O)(=O)NCCN2CCC(Cn3cc(-c4c(C(C)=O)[nH]c5ccc(F)cc45)nn3)CC2)ccc1-c1c(O)cccc1F`
Key: 0.51

Exercise: Indicate its recorded log10 solubility at 24 h; the compound in question is `CC(=O)c1[nH]c2ccc(F)cc2c1-c1cn(CC2CCN(CCNS(=O)(=O)c3ccc(-c4c(O)cccc4F)c(C)c3)CC2)nn1`
Key: 0.53

###

Test: in vivo
Settings: CD-1, mouse, iv, 1 mg/kg
Measured property: Vd at 24 h (L/kg)
Numbers only; they are read as L/kg.

Exercise: Indicate its recorded Vd at 24 h; the compound in question is `CC(=O)c1[nH]c2ccc(F)cc2c1-c1cn(CC2CCN(CCNS(=O)(=O)c3ccc(-c4c(O)cccc4F)cc3)CC2)nn1`
Key: 5.9

###

Test: in vivo
Settings: CD-1, mouse, ip, 40 mg/kg
Measured property: Cmax at 24 h
Reply with a number, then the unit it belongs to.

Exercise: Indicate its recorded Cmax at 24 h; the molecule in question is `CC(=O)c1[nH]c2ccc(F)cc2c1-c1cn(CC2CCN(CCNS(=O)(=O)c3ccc(-c4c(O)cccc4F)cc3)CC2)nn1`
Key: 2700 ng/mL

###

Experiment: in vivo
Conditions: CD-1, mouse, ip, 40 mg/kg
Measured property: bioavailability at 24 h

Exercise: Indicate its recorded bioavailability at 24 h; the compound in question is `CC(=O)c1[nH]c2ccc(F)cc2c1-c1cn(CC2CCN(CCNS(=O)(=O)c3ccc(-c4c(O)cccc4F)cc3)CC2)nn1`
Key: > 100%

###

I'd appreciate it if you could supply remaining at 0.5 h values for the items below.
Assay: in vitro
Conditions: mouse, hepatocytes
Numbers only; they are read as %.

Exercise: Indicate its recorded remaining at 0.5 h; the compound in question is `CC(C)Cc1ccc(S(=O)(=O)NCCN2CCC(Cn3cc(-c4c[nH]c5ccccc45)nn3)CC2)cc1`
Key: 18

Exercise: Indicate its recorded remaining at 0.5 h; the compound in question is `COc1cccc(F)c1-c1ccc(S(=O)(=O)NCCN2CCC(Cn3cc(-c4c(C(C)=O)[nH]c5ccc(F)cc45)nn3)CC2)cc1`
Key: 48

Exercise: Indicate its recorded remaining at 0.5 h; the compound in question is `COc1cc(S(=O)(=O)NCCN2CCC(Cn3cc(-c4c(C(C)=O)[nH]c5ccc(F)cc45)nn3)CC2)ccc1-c1c(O)cccc1F`
Key: 39

Exercise: Indicate its recorded remaining at 0.5 h; the compound in question is `CSc1ccccc1-c1ccc(S(=O)(=O)NCCN2CCC(Cn3cc(-c4c(C(C)=O)[nH]c5ccc(F)cc45)nn3)CC2)cc1C`
Key: 26

Exercise: Indicate its recorded remaining at 0.5 h; the compound in question is `COc1cccc(OC)c1-c1ccc(S(=O)(=O)NCCN2CCC(Cn3cc(-c4c(C(C)=O)[nH]c5ccc(F)cc45)nn3)CC2)cc1C`
Key: 44

Exercise: Indicate its recorded remaining at 0.5 h; the compound in question is `CC(=O)c1[nH]c2ccc(F)cc2c1-c1cn(CC2CCN(CCNS(=O)(=O)c3ccc(-c4c(O)cccc4F)c(C)c3)CC2)nn1`
Key: 27

Provenance of the data: ChEMBL document CHEMBL6182936
